Measured values drawn from paper PMC12642047 for this set.

tested on: MV-4-11 (biphenotypic B myelomonocytic leukemia); assay: MTS cytotoxicity assay (CellTiter 96 AQueous One), compounds, 72 h; type: cell-based; conditions: Homo sapiens, MV4-11, MV-4-11 cells
*1 amine or outer side, *2 acyl side, *3 side chain or, on linkers, in order; H or OH if unused. Where a SMILES comes first, the peptide text is derived from it. [ ]: non-standard residue; d: D form. ξ: configuration not given here. Pentanoyl(2-O,4-OH,5-Cl) = O=C(O)C(O)CC(O)CCl; NMeI = CC[CH](C)[CH](NC)C(=O)O; X1 = CC1CCN([*:1])C1C(=O)[*:2]; ξLac(3-iPr) = CC(C)CC(O)C(=O)O; NMeA = CN[CH](C)C(=O)O; βAla = NCCC(=O)O
quantity_kind: pIC50
// pIC50 here means minus log10 of the molar concentration (mol/L)

compound	quantity_kind	endpoint_result
CCC(C)C1NC(=O)C2CCCN2C(=O)C(CC(O)CCl)OC(=O)CCNC(=O)C(C)N(C)C(=O)C(C(C)CC)N(C)C1=O (centres unmarked) [Compound 1, destruxin-A4 chlorohydrin] (cyclo([Pentanoyl(2-O,4-OH,5-Cl)]PI[NMeI][NMeA][βAla]); configuration not given here)	pIC50	6.15

Req: Reported pIC50 for CCC(C)C1NC(=O)C2C(C)CCN2C(=O)C(CC(C)C)OC(=O)CCNC(=O)C(C)N(C)C(=O)C(C(C)CC)N(C)C1=O (centres unmarked) [Compound 5, homodestcardin] (cyclo([X1]I[NMeI][NMeA][βAla][ξLac(3-iPr)]); configuration not given here) : what is it?
Resp: 4.90
